# tgt: 1-deoxy-D-xylulose-5-phosphate synthase (Escherichia coli (strain K12), UniProt P77488)
# Sequence (P77488 whole entry): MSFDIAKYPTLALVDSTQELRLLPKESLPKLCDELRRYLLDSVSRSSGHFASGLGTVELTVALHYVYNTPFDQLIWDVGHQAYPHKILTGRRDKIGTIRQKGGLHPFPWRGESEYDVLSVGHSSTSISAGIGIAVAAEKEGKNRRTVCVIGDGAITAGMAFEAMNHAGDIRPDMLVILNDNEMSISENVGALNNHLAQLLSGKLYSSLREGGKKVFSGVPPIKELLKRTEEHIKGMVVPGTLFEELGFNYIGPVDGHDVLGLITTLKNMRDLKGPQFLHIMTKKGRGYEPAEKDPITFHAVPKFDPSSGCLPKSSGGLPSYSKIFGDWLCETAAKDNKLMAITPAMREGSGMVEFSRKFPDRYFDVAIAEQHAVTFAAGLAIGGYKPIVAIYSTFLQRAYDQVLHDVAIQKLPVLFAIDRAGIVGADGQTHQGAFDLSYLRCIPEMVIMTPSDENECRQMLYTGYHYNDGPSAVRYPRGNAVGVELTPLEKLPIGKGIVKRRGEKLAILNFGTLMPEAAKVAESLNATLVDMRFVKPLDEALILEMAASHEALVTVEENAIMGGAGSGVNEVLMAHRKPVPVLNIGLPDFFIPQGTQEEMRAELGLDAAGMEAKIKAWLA
# experiment.notes: Competitive inhibition of ThDP-dependent Escherichia coli DXP synthase using pyruvate as substrate assessed as NADPH consumption by spectrophotometric coupled assay
Reported Ki values are given for each entry in this list.
All answers are understood in µM, so give the number only.

{"chemical.string": "CCC(=O)P(=O)(O)OC", "Ki [µM]": 258}
{"chemical.string": "COP(=O)(O)C(C)=O", "Ki [µM]": 0.96}
{"chemical.string": "CCOP(=O)(O)C(C)=O", "Ki [µM]": 6.7}

We now examine a further compound.
Recorded Ki (compound `CCCCOP(=O)(O)C(C)=O` ): 5.6

----------
Known pKi of a selection of molecules
# experiment.notes: Inhibition of ThDP-dependent pyruvate dehydrogenase E1 subunit in porcine heart using pyruvate as substrate by spectrophotometric coupled assay
# Set-up: species or system Sus scrofa
Convention used: pKi is expressed as -log10 of the molar concentration.

Some molecules with recorded pKi:
{"chemical.string": "COP(=O)(O)C(C)=O", "pKi": 4.52}
{"chemical.string": "CCCCOP(=O)(O)C(C)=O", "pKi": 3.47}

// pKi lookup, molecule = `CCOP(=O)(O)C(C)=O` , result: 4.33

----------
# experiment.notes: Inhibition of ThDP-dependent pyruvate dehydrogenase E1 subunit in porcine heart using pyruvate as substrate by spectrophotometric coupled assay
# Set-up: species or system Sus scrofa
quantity.name: Ki

// below: answered compounds
{"chemical.string": "CCC(=O)P(=O)(O)OC", "Ki": "> 1 mM"}
{"chemical.string": "CCCCC(=O)P(=O)(O)OC", "Ki": "> 1 mM"}

The compound identified as `CCCC(=O)P(=O)(O)OC` registered its Ki at > 1 mM
